Test system: Wolbachia pipientis
Test: Anti-Wolbachia Cell-Based Screen
Type: functional
Parameters: scale not given: in the data most compounds retested in dose-response had high values
Settings: 5 µM
In all, about 48,000 compounds went through this assay and about 13,000 (27%) showed an effect of 50% or more. The list shows a part of the results.
readout-label: Percent Effect
A complete answer gives the number followed by the unit.

For orientation, consider the following solved cases.
[[record]]
compound = "Cc1ccc(C(=O)N2CCCCC2CNC(N)=O)s1 (stereo unspecified)"
readout_label = "Percent Effect"
reported = "-21.76%"

[[record]]
compound = "Cc1ccc(C)c(NC(=O)c2n[nH]c(-n3cnnc3)n2)c1"
readout_label = "Percent Effect"
reported = "8.614%"

[[record]]
compound = "NC(=O)NCC1CCCCN1C(=O)c1ccc(Cl)s1 (stereo unspecified)"
readout_label = "Percent Effect"
reported = "6.082%"

[[record]]
compound = "CNS(=O)(=O)CC1CCCN1C(=O)c1ccc(C)c(C)c1 (stereo unspecified)"
readout_label = "Percent Effect"
reported = "1.148%"

[[record]]
compound = "O=C(O)C(F)(F)F.O=C(c1ccccc1F)N1CCC2(CC1)CC(N1CCCC1)CO2 (stereo unspecified)"
readout_label = "Percent Effect"
reported = "116.8%"


Attention now shifts to the item below.
Query: # return recorded Percent Effect for entry COC1COC2(CCN(C(=O)c3cocn3)CC2)C1 (stereo unspecified)
Result: -7.314%

----------
Test system: Wolbachia pipientis
Assay: Anti-Wolbachia Cell-Based Screen
Type: functional
Set-up: scale not given: in the data most compounds retested in dose-response had high values
Conditions: 5 µM
Out of some 48,000 compounds screened, about 13,000 (27%) showed an effect of 50% or more. The list shows a part of the results.
In this section we review reported Percent Effect values for a set of molecules.
Give the value in % but do not write % after it.

For orientation, consider the following solved cases.
[[record]]
molecule = "CCOCc1nc2c(c(N3CC=CC3)n1)CCN(CC1CC1)CC2"
system_tested = "Wolbachia pipientis"
unit_annotation = "%"
reported = -17.04

[[record]]
molecule = "CCC(CC)N1CCC(c2[nH]ncc2S(C)(=O)=O)C1 (stereo not drawn)"
system_tested = "Wolbachia pipientis"
unit_annotation = "%"
reported = 101.4

[[record]]
molecule = "Cc1c(CN2CCCC(c3[nH]ncc3S(C)(=O)=O)C2)cnn1C (stereo not drawn)"
system_tested = "Wolbachia pipientis"
unit_annotation = "%"
reported = 3.915

[[record]]
molecule = "Cc1nc(C2CCN(C(=O)CO)CC2)cc(N2CCOCC2)n1"
system_tested = "Wolbachia pipientis"
unit_annotation = "%"
reported = 8.233

[[record]]
molecule = "COc1ccnc(N2CCN(C(=O)c3cscn3)CC2)n1"
system_tested = "Wolbachia pipientis"
unit_annotation = "%"
reported = 2.321


Attention now shifts to the item below.
Query: # return recorded Percent Effect for entry O=c1[nH]c(=O)n(CC(O)c2ccc(F)cc2F)cc1Cl (stereo not drawn)
Result: -0.7239

----------
Tested on: Wolbachia pipientis
Test: Anti-Wolbachia Cell-Based Screen
Type: functional
Set-up: scale not given: in the data most compounds retested in dose-response had high values
Settings: 5 µM
Among all 48,000 compounds or so, about 13,000 (27%) showed an effect of 50% or more. This is one part of the list.
readout-label: Percent Effect (%)
Give the value in % but do not write % after it.

[[record]]
compound = "Cc1cc(N2CCN(C(=O)Cc3ccc4c(c3)OCO4)CC2)cc(C)n1"
reported = -8.837

[[record]]
compound = "CC1(c2ccccc2)CCC(=O)N(CCN2CCCOC2=O)C1 (stereo unspecified)"
reported = -2.659

[[record]]
compound = "Cc1nc(C)c(CNCC2CCCn3ccnc32)s1 (stereo unspecified)"
reported = -11.09


Attention now shifts to the item below.
Query: # return recorded Percent Effect for entry `CCN1CCN(S(=O)(=O)c2cnc(NC(C)=O)s2)CC1`
Result: -4.735

----------
System: Wolbachia pipientis
Experiment: Anti-Wolbachia Cell-Based Screen
Type: functional
Set-up: scale not given: in the data most compounds retested in dose-response had high values
Conditions: 5 µM
In all, about 48,000 compounds went through this assay and about 13,000 (27%) showed an effect of 50% or more. Some of the results follow.
readout-label: Percent Effect (%)
Give the value in % but do not write % after it.

[[record]]
compound = "CCN(CC1CCCCO1)C(=O)CCNC(=O)c1ccccc1F (configuration not stated)"
reported = 0.5335

[[record]]
compound = "Cc1cc(C(=O)N2CCCC(c3nncn3C)C2)no1 (configuration not stated)"
reported = 92.93

[[record]]
compound = "Cc1ncsc1CCn1ccnc1-c1cc2n(n1)CCCNC2"
reported = -9.491

[[record]]
compound = "CCc1nnsc1C(=O)N(C)Cc1ccc(Br)o1"
reported = 14.42

[[record]]
compound = "Cn1cnnc1C1CCCN(C(=O)Cc2ccc3c(c2)OCCO3)C1 (configuration not stated)"
reported = 17.9


Query: Look up and report measured Percent Effect (Wolbachia pipientis) for the following compound: `CC(C)(C)C(=O)N[C@H]1C[C@@H](Cc2cc(CN3CCOCC3)on2)C1(C)C`
Result: -2.41

----------
Test system: Wolbachia pipientis
Experiment: Anti-Wolbachia Cell-Based Screen
Type: functional
Parameters: scale not given: in the data most compounds retested in dose-response had high values
Details: 5 µM
Among all 48,000 compounds or so, about 13,000 (27%) showed an effect of 50% or more. The list shows a part of the results.
readout-label: Percent Effect (%)
Give the value in % but do not write % after it.

[[record]]
compound = "O=C(NC1=NCCCN1c1ccc(Cl)cc1)c1cccc(Cl)c1"
readout_label = "Percent Effect"
unit_annotation = "%"
reported = 17.77


Query: # return recorded Percent Effect for entry `Cc1cc(N(Cc2ccccn2)C2CC2)n2nc(C(F)(F)F)nc2n1`
Result: 23.9

Query: # return recorded Percent Effect for entry `c1cc(-c2nnc([C@H]3CCN(C4CCCCC4)C3)o2)ccn1`
Result: -11.18

----------
In this section we review reported Percent Effect values for a set of molecules.
Test system: Wolbachia pipientis
Experiment: Anti-Wolbachia Cell-Based Screen
Assay type: functional
Parameters: scale not given: in the data most compounds retested in dose-response had high values
Settings: 5 µM
Hit rate of the full screen: of about 48,000 compounds, about 13,000 (27%) showed an effect of 50% or more. The list shows a part of the results.

[[record]]
molecule = "Cc1cc(C)c(C(=O)Nc2cccc(CN3CCC(CO)CC3)c2)o1"
reported = "132.4%"


Query: # return recorded Percent Effect for entry `Cc1cncc(C(=O)N2CCC(Cn3cc(-c4ccsc4)nn3)CC2)c1`
Result: -0.4456%

Query: # return recorded Percent Effect for entry `Cc1n[nH]cc1CNCc1ccnc(OCC(F)(F)F)c1.Cl`
Result: -12.37%

Query: # return recorded Percent Effect for entry `Cc1nc(CN2CCC(CNC(=O)Nc3ccccc3)CC2)oc1C`
Result: -9.889%

----------
In this section we review reported Percent Effect values for a set of compounds.
System: Wolbachia pipientis
Test: Anti-Wolbachia Cell-Based Screen
Assay type: functional
Set-up: scale not given: in the data most compounds retested in dose-response had high values
Details: 5 µM
Out of some 48,000 compounds screened, about 13,000 (27%) showed an effect of 50% or more. This is one part of the list.
Give the value in % but do not write % after it.

[[record]]
compound = "COCC1COCCC12CCN(S(=O)(=O)c1ccccc1)CC2 (centres undefined)"
unit_annotation = "%"
reported = 111.6

[[record]]
compound = "CCOc1ccc(Cl)c(C(=O)N2CCN(c3ccncc3)CC2)n1"
unit_annotation = "%"
reported = 119.1

[[record]]
compound = "CCC(O)CN1CCN(C(=O)c2csc(COC)n2)CC1 (centres undefined)"
unit_annotation = "%"
reported = -26.29

[[record]]
compound = "O=C(CCNS(=O)(=O)c1ccc2c(c1)CCCC2)NCc1ccoc1"
unit_annotation = "%"
reported = 1.514

[[record]]
compound = "COc1cc(Cl)ccc1CNC(=O)N(C)C(C)CS(C)(=O)=O (centres undefined)"
unit_annotation = "%"
reported = 2.125

[[record]]
compound = "COCC1COCCC12CCN(C(=O)CCOc1ccccc1)CC2 (centres undefined)"
unit_annotation = "%"
reported = 9.795

[[record]]
compound = "CCOc1cc(Cl)ccc1CNC(=O)N1CCCC(CO)C1 (centres undefined)"
unit_annotation = "%"
reported = -9.935

[[record]]
compound = "CCn1cc2c(n1)CN(S(=O)(=O)c1cccnc1)CC2COC.O=C(O)C(F)(F)F (centres undefined)"
unit_annotation = "%"
reported = -12.46

[[record]]
compound = "CCC(CC)c1cc(CNC(=O)N2CCC(n3cncn3)CC2)on1"
unit_annotation = "%"
reported = -7.222

[[record]]
compound = "CCOCC1COCCC12CCN(C(=O)CC1=CCCCC1)CC2 (centres undefined)"
unit_annotation = "%"
reported = -10.97


Query: # return recorded Percent Effect for entry `CCOc1ccnc(N2CCN(C(=O)c3cccnc3O)CC2)n1`
Result: -0.2095

Query: # return recorded Percent Effect for entry CCC(O)CN1CCN(C(=O)c2cccn2Cc2ccccc2)CC1 (centres undefined)
Result: -11.52

Query: # return recorded Percent Effect for entry `CCOc1ccc(Cl)c(C(=O)N2CCN(c3cnccn3)CC2)n1`
Result: 0.9998

Query: # return recorded Percent Effect for entry `CCOc1ccnc(N2CCN(C(=O)CCc3ccncc3)CC2)n1`
Result: -7.253

Query: # return recorded Percent Effect for entry `Cc1nc(CN2CCCN(CCOc3cccc(C#N)c3)CC2)no1`
Result: 11.38

Query: # return recorded Percent Effect for entry O=C(Cc1ccco1)N1CCC2(CCOCC2COCC2CC2)CC1 (centres undefined)
Result: -44.1

Query: # return recorded Percent Effect for entry COCC1COCCC12CCN(S(=O)(=O)c1cccnc1)CC2.O=C(O)C(F)(F)F (centres undefined)
Result: 117.9

Query: # return recorded Percent Effect for entry `CC(C)(C)NS(=O)(=O)c1ccc(NC(=O)C2CC2)cc1`
Result: -16.45

Query: # return recorded Percent Effect for entry `CCOc1ccc(Cl)c(C(=O)N2CCCN(CC(N)=O)CC2)n1`
Result: 93.33

Query: # return recorded Percent Effect for entry `CCOc1ccc(Cl)c(C(=O)N2CCN(c3ncccn3)CC2)n1`
Result: 79.36

Query: # return recorded Percent Effect for entry COCC1COCCC12CCN(S(=O)(=O)c1ccc(C)cc1)CC2 (centres undefined)
Result: 101.4

Query: # return recorded Percent Effect for entry CCOc1ccc(Cl)c(C(=O)NC(C)C(N)=O)n1 (centres undefined)
Result: -12.05

Query: # return recorded Percent Effect for entry COCC1COCCC12CCN(C(=O)CCc1ccccc1)CC2 (centres undefined)
Result: -6.521

Query: # return recorded Percent Effect for entry `Cc1cccc(OCCC(=O)N2CCCN(CC(N)=O)CC2)c1C`
Result: -3.511

Ref: ChEMBL document CHEMBL3988442
